Test: NCI Yeast Anticancer Drug Screen. Data for the rad50 strain (AID 155);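 note: 0% = growth of vehicle-only cultures of the same strain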
Settings: S. cerevisiae rad50 strain growth inhibition; at 50.0 µM; hits give high values
The panel holds about 79,000 compounds, 15% with a hit somewhere; the sample as a whole holds those more often.
Form field: growth inhibition (one value per entry).
Your answer is read as %, so omit the unit and give the number.

compound | unit tag | growth inhibition
CCCCN(CCCC)S(=O)(=O)c1ccc(OCCOc2ccc(S(=O)(=O)N(CCCC)CCCC)cc2)cc1 | % | 10.7
Cc1nc2c(N3CCOCC3)ncnc2o1 | % | 5.15
CCCCCCCCCc1cc(-c2ccc(C=O)s2)sc1-c1ccc(C=O)s1 | % | 8.8
CN1CCN(C(=O)Nc2ccc(N=Nc3ccccc3)cc2)CC1 | % | -9.3
CC(C)(CO)N1CCN(C(=S)Nc2ccccc2)CC1 | % | 17.9
O=C(O)CSC(=S)c1ccccc1 | % | 16.4

growth inhibition measured on O=C1Nc2ncnc(Cl)c2Cc2ccccc21 = -2.6

Reported growth inhibition ( CC1CC2OC(=O)C(C)C2CC2(C)C(OC3OC(CO)C(O)C(O)C3O)OCCC12 (stereo not drawn) ) = 11.7

Reported growth inhibition ( O=C(O)C1C2CCC(O2)C1C(=O)Nc1cccc2cccnc12 (stereo not drawn) ) = 15.3

// recorded growth inhibition for Nc1nc(-c2cccc(S(=O)(=O)O)c2)c([N+](=O)[O-])c(=O)[nH]1 : -10

The recorded growth inhibition for CSCCC(NC(=O)c1c(Cl)ccc(Cl)c1Cl)C(=O)O (stereo not drawn) is -8.45

----------
Experiment: NCI Yeast Anticancer Drug Screen. Data for the sgs1 mgt1 strain (AID 161);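 note: 0% = growth of cultures given vehicle only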
Details: S. cerevisiae sgs1 mgt1 strain, at 50.0 µM, hits give high values
Procedure: Growth inhibition of yeast strains with defined genetic alterations is measured as a screen for potential anti-cancer activity. Selected strains with alterations in DNA damage repair or cell cycle control were exposed to compounds and growth inhibition was measured relative to vehicle treated controls. The strain used in this assay is sgs1 mgt1
Compounds without any hit were thinned out: in the full panel of roughly 79,000, 15% have a hit. Where a SMILES comes first, the peptide text is derived from it. The star is where a group is joined. Boc = CC(C)(C)OC(=O)*
Overview of reported growth inhibition across a group of compounds:
Could you give me the number in %? Just the number is fine.

compound | growth inhibition / %
S=c1cc(-c2ccccc2)oc2ccccc12 | -1.1

Lab book: growth inhibition of COC(=O)CNC(=O)C(CC(C)C)NC(=O)C(CC(C)C)NC(=O)OC(C)(C)C (stereo not drawn) (Boc-Leu-Leu-Gly-OMe; configuration not given here) noted as 32.1

Entry under test: Cc1cc(C#N)c[n+](C)c1 . Its growth inhibition was -25

Entry under test: CCCCCCC(=O)C/C(CCC(=O)N(Cc1ccccc1)Cc1ccccc1)=N\NC(N)=O . Its growth inhibition was -14.8

The reported growth inhibition of the compound C=C(c1ccccc1)N1N=NC2CCOC21 (stereo unspecified) was 4.2

// growth inhibition value for COC1OC(C(C)O)C(O)C(O)C1O (stereo unspecified) : 10.2

// growth inhibition lookup, compound = CCC(C(O)c1ccc(Cl)cc1)[N+](=O)[O-] (stereo unspecified) , result: 35.9

Recorded growth inhibition (compound CC(C)CC(NC(=O)C(CS)NC(=O)CN1C(=O)CCC1=O)C(N)=O (stereo unspecified) ): 4.65

growth inhibition measured on O=C(CCCc1ccccc1)OCC(=O)c1ccc(-c2ccccc2)cc1 = 11.2

The reported growth inhibition of the compound O=C1Cc2c(c3ccccc3c3ccccc23)C1 was -4.1

Measured growth inhibition of CCCCCCCCCCCCCCCCCCCCCCCCCC : -19.2

Where do the numbers come from? From PubChem BioAssay (NCI).
